# assayed system: human methionine aminopeptidase type 2 (HsMetAP2) (Homo sapiens, UniProt P50579)
# Construct: purchased R&D Systems
# Sequence (P50579 whole entry): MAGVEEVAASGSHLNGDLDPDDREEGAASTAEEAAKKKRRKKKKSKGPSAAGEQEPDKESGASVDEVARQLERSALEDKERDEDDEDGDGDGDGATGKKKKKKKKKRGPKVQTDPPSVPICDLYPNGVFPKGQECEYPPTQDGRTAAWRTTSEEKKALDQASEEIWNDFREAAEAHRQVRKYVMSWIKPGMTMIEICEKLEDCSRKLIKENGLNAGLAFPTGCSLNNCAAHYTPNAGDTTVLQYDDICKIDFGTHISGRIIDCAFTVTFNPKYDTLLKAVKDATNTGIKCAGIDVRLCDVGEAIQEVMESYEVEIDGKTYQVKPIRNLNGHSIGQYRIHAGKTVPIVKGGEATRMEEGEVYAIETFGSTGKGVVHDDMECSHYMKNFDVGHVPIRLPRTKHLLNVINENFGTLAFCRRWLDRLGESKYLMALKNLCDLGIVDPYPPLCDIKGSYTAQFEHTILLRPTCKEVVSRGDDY
# assay procedure: Inhibition of recombinant human MetAP2, fluorogenic substrate Met-AMC
# Type: biochemical
# test settings: from Lineweaver-Burk and Dixon plots
Starred links: 1 amine or outer side, 2 acyl side, 3 side chain; linkers in the order of their positions; H or OH if unused. Positions of bridges follow the written chain, without caps; N, C: chain ends. Non-standard residues stand in square brackets, D forms with d. Residues, ends and D or L forms follow the SMILES beside them. Chains are numbered I, II in the order given. Actinocin(1to9) = Cc1c2oc3c(C)ccc(C(=O)[*:2])c3nc-2c(C(=O)[*:1])c(N)c1=O; Actinocin(9to1) = Cc1c2oc3c(C)ccc(C(=O)[*:1])c3nc-2c(C(=O)[*:2])c(N)c1=O; Pro(4-oxo) = O=C1CN[C@H](C(=O)O)C1; NMeV = CN[C@H](C(=O)O)C(C)C; Sar = CNCC(=O)O
test readout: mechanism of inhibition of HsMetAP2

• Cc1c2oc3c(C)ccc(C(=O)O)c3nc-2c(C(=O)O)c(N)c1=O = competitive
• Cc1c2oc3c(C)ccc(C(=O)N[C@@H]4C(=O)N[C@H](C(C)C)C(=O)N5CCC[C@H]5C(=O)N(C)CC(=O)N(C)[C@@H](C(C)C)C(=O)O[C@@H]4C)c3nc-2c(C(=O)N[C@@H]2C(=O)N[C@H](C(C)C)C(=O)N3CC(=O)C[C@H]3C(=O)N(C)CC(=O)N(C)[C@@H](C(C)C)C(=O)O[C@@H]2C)c(N)c1=O [Actinomycin X2, reference compound] (I: T[dV][Pro(4-oxo)][Sar][NMeV] / II: T[dV]P[Sar][NMeV]; ester I:1-I:C, II:1-II:C; linker I:N-II:N via Actinocin(1to9)) = non-competitive
• Cc1c2oc3c(C)ccc(C(=O)N[C@@H]4C(=O)N[C@H](C(C)C)C(=O)N5CCC[C@H]5C(=O)N(C)CC(=O)N(C)[C@@H](C(C)C)C(=O)O[C@@H]4C)c3nc-2c(C(=O)N[C@@H]2C(=O)N[C@H](C(C)C)C(=O)N3CCC[C@H]3C(=O)N(C)CC(=O)N(C)[C@@H](C(C)C)C(=O)O[C@@H]2C)c(N)c1=O [Actinomycin D] (I: T[dV]P[Sar][NMeV] / II: T[dV]P[Sar][NMeV]; ester I:1-I:C, II:1-II:C; linker I:N-II:N via Actinocin(9to1)) = non-competitive
• Nc1cc2nc3ccccc3oc-2cc1=O = competitive

====

# assayed system: human methionine aminopeptidase type 2 (HsMetAP2) (Homo sapiens, UniProt P50579)
# Construct: purchased R&D Systems
# assay procedure: Inhibition of recombinant human MetAP2, fluorogenic substrate Met-AMC
# Format: biochemical
# test settings: TRIS buffer, 37°C; average with standard deviation, at least three experiments; read-out: IC50 HsMetAP
For each of the molecules below, state its pIC50.
Numbers only, as −log10 of the molar value.

• Cc1c2oc3c(C)ccc(C(=O)O)c3nc-2c(C(=O)O)c(N)c1=O = 5.63

Next, consider the following molecule.
Q. Given the entry Nc1cc2nc3ccccc3oc-2cc1=O , report its measured pIC50.
A. 4.46

====

# assayed system: human alanine aminopeptidase (HsAPN) (Homo sapiens, UniProt P15144)
# Construct: purchased R&D Systems
# Sequence (P15144 whole entry): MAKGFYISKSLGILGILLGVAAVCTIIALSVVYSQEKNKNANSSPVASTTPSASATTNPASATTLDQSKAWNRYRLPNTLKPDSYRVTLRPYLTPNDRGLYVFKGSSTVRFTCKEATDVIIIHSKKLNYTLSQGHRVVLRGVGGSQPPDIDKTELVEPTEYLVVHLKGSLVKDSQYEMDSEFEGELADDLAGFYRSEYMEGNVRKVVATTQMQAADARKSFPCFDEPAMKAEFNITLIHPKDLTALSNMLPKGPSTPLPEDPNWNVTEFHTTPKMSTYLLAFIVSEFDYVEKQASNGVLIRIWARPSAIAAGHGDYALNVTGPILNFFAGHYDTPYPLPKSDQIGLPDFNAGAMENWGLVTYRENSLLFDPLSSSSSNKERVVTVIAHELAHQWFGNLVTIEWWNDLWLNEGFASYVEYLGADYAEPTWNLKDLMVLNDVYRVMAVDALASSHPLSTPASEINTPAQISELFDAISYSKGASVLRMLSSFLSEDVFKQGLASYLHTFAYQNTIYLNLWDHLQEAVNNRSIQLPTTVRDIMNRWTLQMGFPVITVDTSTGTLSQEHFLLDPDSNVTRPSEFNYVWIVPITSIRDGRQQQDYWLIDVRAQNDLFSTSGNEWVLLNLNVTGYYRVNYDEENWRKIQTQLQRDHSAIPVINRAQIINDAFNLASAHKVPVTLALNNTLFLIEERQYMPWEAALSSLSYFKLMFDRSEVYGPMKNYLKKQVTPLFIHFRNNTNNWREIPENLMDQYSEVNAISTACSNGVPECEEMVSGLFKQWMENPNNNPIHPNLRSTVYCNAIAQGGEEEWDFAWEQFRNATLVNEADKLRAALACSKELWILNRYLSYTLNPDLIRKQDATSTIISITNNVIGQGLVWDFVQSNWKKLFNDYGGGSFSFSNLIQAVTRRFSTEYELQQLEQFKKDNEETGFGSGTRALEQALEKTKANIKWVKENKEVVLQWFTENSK
# assay procedure: Inhibition of recombinant human APN, fluorogenic substrate Ala-AMC
# Assay type: biochemical
# test settings: TRIS buffer, 37°C; calculated by Cheng-Prusoff equations for non-competitive and competitive inhibitors; average with standard deviation, at least three experiments; read-out: Ki HsAPN
# Description: Actinomycin D was purchased as a lyophilized powder from Sigma-Aldrich (Poznan, Poland), Actinomycin X2 was purchased form Adipogen (Liestal, Switzerland). Actinocine and Questiomycin A were synthesized according to a previously described procedure. […] The inhibitors were screened against human APN and human MetAP2 at 37°C in the assay buffer as described above. […] The release of the AMC fluorophore was monitored. […]
Kindly supply the reported pKi values for the records listed here.
Numbers only, as −log10 of the molar value.

• Nc1cc2nc3ccccc3oc-2cc1=O = 4.28

Could you now consider this next compound?
Q. GET /values?readout=pKi&item= Cc1c2oc3c(C)ccc(C(=O)O)c3nc-2c(C(=O)O)c(N)c1=O
A. 5.22

FYI, the data here is from paper PMC6047675.
